assay: AUC in rat plasma at 50 mg/kg, po and measured upto 24 hr by LC-MS/MS analysis; format: ADME, organism-based
Entries annotated with measured AUC at 24 h
measuredParameter: AUC at 24 h

[[record]]
samplesmiles = "O=C(NCCCN1CCOCC1)[C@H]1C[C@H](c2ccccc2)CN1C(=O)c1cc(C2CC2)c(O)cc1O"
result = "239 µg·h/mL"

[[record]]
samplesmiles = "CC(C)c1cc(C(=O)N2C[C@@H](c3ccccc3)C[C@@H]2C(=O)NCCCN2CCOCC2)c(O)cc1O"
result = "186 µg·h/mL"


====

system: SK-BR-3; test: Antiproliferative activity against human SK-BR-3 cells assessed as cell viability inhibition rate incubated for 72 hr by MTT assay; assay type: functional, cell-based; conditions: SK-BR-3, 72 h
measuredParameter: IC50

[[record]]
samplesmiles = "O=C(NCc1ccc(F)cc1F)[C@H]1C[C@H](c2ccccc2)CN1C(=O)c1cc(C2CC2)c(O)cc1O"
result = "256 nM"

[[record]]
samplesmiles = "COCCN(CCOC)C(=O)[C@H]1C[C@H](c2ccccc2)CN1C(=O)c1cc(C(C)C)c(O)cc1O"
result = "877 nM"

[[record]]
samplesmiles = "CC(C)c1cc(C(=O)N2C[C@@H](c3ccccc3)C[C@@H]2C(=O)NCCc2ccccc2)c(O)cc1O"
result = "371 nM"


The measurements presented in this section are drawn from ChEMBL document CHEMBL6153150.
